Where a name gives a salt, the structure may show the parent alone.
measuredQuantity: melting point

Documented melting point of CCN1CCN(c2nc(-c3ccc(SC)cc3)cc3ccccc23)CC1 (as salt: hydrochloride) : 215 to 218 °C (dec.)

Given item CCN1CCN(c2nc(-c3ccc(N4CCOCC4)nc3)cc3ccccc23)CC1 (as salt: hydrochloride) [Example 147, trihydrochloride] , the value recorded as its melting point is 186 °C

Data point: CCN1CCN(c2nc(-c3ccc(N4CCC(OC)CC4)cc3)cc3ccccc23)CC1 (as salt: hydrochloride) [Example 98, Trihydrochloride] ; melting point = 165 °C

The molecule identified as CCN1CCN(c2nc(-c3ccc(C(=O)CC(C)C)cc3)cc3ccsc23)CC1 (as salt: hydrochloride) [Example 272, dihydrochloride] registered its melting point at 139 to 141 °C

The value of melting point measured for the molecule CCN1CCN(c2nc(-c3ccc(CC(C)O)cc3)cc3ccccc23)CC1 (stereo not drawn) (as salt: oxalate) turned out to be 174 to 176 °C

melting point in this record for CCN1CCN(c2nc(-c3ccc4c(c3)CC(CO)C4)cc3ccccc23)CC1 (stereo not drawn) (as salt: hydrochloride) [Example 393, Dihydrochloride] : 136.5 to 138 °C

The recorded melting point for entry CCCN(C)S(=O)(=O)c1ccc(-c2cc3ccccc3c(N3CCN(CC)CC3)n2)cc1 (as salt: hydrochloride) [Example 358, dihydrochloride] equals 199.5 to 200.5 °C (dec.)

Input CCN1CCN(c2nc(-c3ccc(OCCO)cc3)cc3cc(F)ccc23)CC1 (as salt: hydrochloride) [Example 223, dihydrochloride] . Output melting point: 152 to 170 °C

According to the records, this molecule CCN1CCN(c2nc(-c3ccc(OC)c(CCCCO)c3)cc3ccccc23)CC1 (as salt: hydrochloride) displays melting point of 128 to 132 °C

The reported value for CCN1CCN(c2nc(-c3ccc(S(=O)(=O)N4CCCC4)cc3)cc3ccccc23)CC1 (as salt: hydrochloride) [Example 356, dihydrochloride] in terms of melting point is 238.5 to 240 °C (dec.)

Lab book: melting point of CCN1CCN(c2nc(-c3nc(C)c(CCO)s3)cc3ccccc23)CC1 (as salt: hydrochloride) noted as 149 to 154 °C

Value of melting point reported for the molecule CCN1CCN(c2nc(-c3ccc(CCC(C)O)cc3)cc3ccsc23)CC1 (stereo not drawn) (as salt: hydrochloride) [Example 440, dihydrochloride] is 110.5 to 112 °C

Looking up CCN1CCN(c2nc(C(=O)Nc3ccccc3)cc3ccccc23)CC1 (as salt: hydrochloride) [Example 218, dihydrochloride] , I see its melting point listed as 260 °C (dec.)

Record CCN1CCN(c2nc(-c3ccc(OCCF)cc3)cc3ccccc23)CC1 (as salt: hydrochloride) [Example 45, Dihydrochloride] . Reported melting point: 223 to 224 °C (dec.)

// recorded melting point for CCCCNC(=O)c1ccc(-c2cc3ccsc3c(N3CCN(CC)CC3)n2)cc1 (as salt: hydrochloride) [Example 452, dihydrochloride] : 127.5 to 128 °C

Measured melting point, CCCNS(=O)(=O)c1ccc(-c2cc3ccccc3c(N3CCN(CC)CC3)n2)cc1 (as salt: hydrochloride) [Example 353, dihydrochloride] : 226.5 to 227.5 °C (dec.)

Sample CCCNC(=O)Cc1ccc(-c2cc3ccccc3c(N3CCN(CC)CC3)n2)cc1 (as salt: hydrochloride) ; melting point observed: 138 to 141 °C

Just so you know, measured melting point for CCN1CCN(c2nc(-c3ccccc3)cc3ccc(OC)cc23)CC1 (as salt: hydrochloride) came out at 130 to 132 °C

Data point: CCN1CCN(c2nc(-c3ccc(C4COCCO4)cc3)cc3ccccc23)CC1 (stereo not drawn) (as salt: hydrochloride) [Example 395, Dihydrochloride] ; melting point = 163 to 166 °C (dec.)

Per the record, CCN1CCN(c2nc(-c3ccc(OC)c(OC)c3)cc3ccccc23)CC1 (as salt: hydrochloride) [Example 14, Dihydrochloride] has melting point of 125 to 126.5 °C

// field: melting point; key: CCN1CCN(c2nc(-c3ccc(CCCO)c(Cl)c3)cc3ccccc23)CC1 (as salt: hydrochloride) ; value = 123 to 124 °C

====

Please provide measured Ki for the entries that follow.
Where a name gives a salt, the structure may show the parent alone.
Give the number; nM is assumed, so skip it.

serotonin 2 receptor (Rattus norvegicus) assay, compound CCCS(=O)(=O)c1ccc(-c2cc3ccsc3c(N3CCN(CC)CC3)n2)cc1 [Example 451, dihydrochloride] , recorded Ki = 37.9

Record CCN1CCN(c2nc(-c3ccc(N4CCC(OC)CC4)cc3)cc3ccccc23)CC1 [Example 98, Trihydrochloride] has serotonin 2 receptor (Rattus norvegicus) Ki equal to 2.7

Reported serotonin 2 receptor (Rattus norvegicus) Ki for item CCN1CCN(c2nc(-c3ccc(C(O)C4CCCCC4)cc3)cc3ccccc23)CC1 (stereo not shown) was 9.7

Record CCN1CCN(c2nc(-c3ccc(N4CCC(O)CC4)nc3)cc3ccccc23)CC1 [Example 152, trihydrochloride] / serotonin 2 receptor (Rattus norvegicus), Ki recorded as 12.4

====

So I've got a bunch of molecules here, and I need their melting point values.
Counter-ions that a name gives are not always drawn.

Looking up CCN1CCN(c2nc(-c3ccc(CC(C)=O)cc3)cc3ccccc23)CC1 (as salt: hydrochloride) [Example 375, dihydrochloride] , I found its melting point recorded as 125 to 126 °C

Recorded result, CCCC(=O)NCc1ccc(-c2cc3ccccc3c(N3CCN(CC)CC3)n2)cc1 (as salt: hydrochloride) , melting point: 126 to 128 °C

Sample CCN1CCN(c2nc(-c3ccc(OCCCC#N)cc3)cc3ccccc23)CC1 (as salt: hydrochloride) ; melting point observed: 144 to 146 °C

Record CCN1CCN(c2nc(-c3ccc(OC)cc3)cc3cccc(OC)c23)CC1 (as salt: hydrochloride) , field melting point: 237 to 241 °C

Recorded melting point (molecule `CCN1CCN(c2nc(-c3ccc(C4CCOCC4)s3)cc3ccccc23)CC1.Cl` ): 251 to 253 °C

The measured melting point associated with CCN1CCN(c2nc(-c3ccc(N)cc3)cc3ccccc23)CC1 (as salt: hydrochloride) reads 267 to 268 °C

melting point measured on CCN1CCN(c2nc(-c3ccc(CC(C)CO)cc3)cc3ccccc23)CC1 (stereo not drawn) (as salt: oxalate) = 195 to 196 °C

GET /value?item= CCCC(=O)c1ccc(-c2cc3ccccc3c(N3CCN(CC)CC3)n2)cc1 (as salt: hydrochloride) &field=melting point returns 110 to 112.5 °C (dec.)

# melting point of CCN1CCN(c2nc(-c3ccc(N4CCOC4=O)cc3)cc3ccccc23)CC1 (as salt: hydrochloride) = 171 to 174 °C

According to the records, this molecule COc1ccc(-c2cc3ccccc3c(N(C)CCN(C)C)n2)cc1 (as salt: hydrochloride) [Example 319, dihydrochloride] displays melting point of 160 to 162 °C

// sample CCN1CCN(c2nc(-c3ccc(OCCOC)cn3)cc3ccccc23)CC1 (as salt: hydrochloride) , its melting point was 116 to 119 °C

Kindly note the recorded melting point for CCN1CCN(c2nc(-c3cc(F)c(OCCF)c(F)c3)cc3ccccc23)CC1 (as salt: hydrochloride) [Example 371, dihydrochloride] , which is 105 to 105.5 °C

The molecule identified as CCN1CCN(c2nc(-c3ccc(N4CCSCC4)nc3)cc3ccsc23)CC1 (as salt: hydrochloride) registered its melting point at 201 to 203 °C

Recorded melting point (molecule CCN1CCN(c2nc(CCc3ccc(OC)cc3)cc3ccccc23)CC1 (as salt: hydrochloride) ): 224 to 227 °C

What the record says about CCN1CCN(c2nc(-c3ccc(OC)cc3)cc3cccc(F)c23)CC1 (as salt: hydrochloride) [Example 233, dihydrochloride] : melting point is 222 to 227 °C

// sample CCN1CCN(c2nc(-c3ccc(CC(C)(C)O)cc3)cc3ccccc23)CC1 (as salt: oxalate) , its melting point was 184 to 186 °C (dec.)

get_value(item= CCN1CCN(c2nc(-c3ccccc3OC)cc3ccccc23)CC1 (as salt: hydrochloride) , readout=melting point) returns 133 to 135 °C

Reported melting point for CCCN1CCN(c2nc(-c3ccc(OCCO)cc3)cc3ccccc23)CC1 (as salt: hydrochloride) was 220 to 225 °C

====

Where a name gives a salt, the structure may show the parent alone.
measuredQuantity: melting point

In plain terms, CCN1CCN(c2nc(C3=CCCc4c(OC)cccc43)cc3ccccc23)CC1 (as salt: oxalate) has a documented melting point of 136 to 139 °C

For this compound ( CCCN1CCN(c2nc(-c3ccc(OCCO)cc3)cc3sccc23)CC1 (as salt: hydrochloride) ), measured melting point is 128 to 130 °C

Entry CCN1CCN(c2nc(-c3ccc(O[C@@H](C)CO)cc3)cc3ccsc23)CC1 (as salt: hydrochloride) [Example 438, dihydrochloride] — recorded melting point = 126 to 127 °C

So, CCN1CCN(c2nc(-c3ccccn3)cc3ccccc23)CC1 (as salt: hydrochloride) [Example 123, Dihydrochloride] ? Its melting point was 160 to 162 °C

Recorded melting point (compound CCN1CCN(c2nc(-c3ccc([C@H]4CC[C@H](O)CC4)cc3)cc3ccccc23)CC1 (as salt: hydrochloride) [Example 398, Dihydrochloride] ): 157 to 158 °C (dec.)

// melting point lookup, compound = CCN1CCN(c2nc(-c3ccc(S(=O)(=O)CC)nc3)cc3ccccc23)CC1 (as salt: hydrochloride) , result: 155 to 159 °C

The recorded melting point for CCNC(=O)c1ccc(-c2cc3ccccc3c(N3CCN(CC)CC3)n2)cc1 (as salt: hydrochloride) [Example 364, dihydrochloride] is 160 to 160.5 °C

The compound listed as CCN1CCN(c2nc(-c3ccc(OCCO)cc3)cc3sccc23)CC1 (as salt: hydrochloride) [Example 286, dihydrochloride] has a reported melting point of 128 to 129 °C

Consider CCN1CCN(c2nc(-c3ccc(OCCO)cc3)cc3cscc23)CC1 (as salt: oxalate) . Its measured melting point is 130 °C (dec.)

melting point in this record for CCN1CCN(c2nc(-c3ccc(O[C@@H](C)CO)cc3)cc3ccccc23)CC1 (as salt: hydrochloride) [Example 404, Dihydrochloride] : 128 to 129 °C

Memo: CCN1CCN(c2nc(-c3cc(F)c(OCCO)c(F)c3)cc3ccccc23)CC1 (as salt: hydrochloride) , reported melting point: 112.5 to 114 °C

Entry CCN1CCN(c2nc(-c3ccc(OC)cc3)cc3ccsc23)CC1 (as salt: hydrochloride) [Example 459, dihydrochloride] , melting point reported as 113 to 115 °C

# melting point (compound: CCN1CCN(c2nc(/C=C/c3ccccc3)cc3ccccc23)CC1 (as salt: hydrochloride) [Example 189, Dihydrochloride] ) is 222 to 225 °C

The measured melting point associated with CCC/C(=N\O)c1ccc(-c2cc3ccccc3c(N3CCN(CC)CC3)n2)cc1 (as salt: oxalate) reads 179.5 to 180 °C

response.value for CCN1CCN(c2nc(-c3csc(CO)c3)cc3ccccc23)CC1 (as salt: hydrochloride) [Example 161, dihydrochloride] (field: melting point) = 170 °C

CCCS(=O)(=O)Nc1ccc(-c2cc3ccccc3c(N3CCN(CC)CC3)n2)cc1 (as salt: hydrochloride) has a reported melting point of 163 to 165 °C

// sample `CCN1CCN(c2nc(-c3ccc(O)cc3)cc3ccccc23)CC1` , its melting point was 204 to 206 °C

The value of melting point measured for the compound CCN1CCN(c2nc(-c3ccc(OCCO)c(C#N)c3)cc3ccccc23)CC1 (as salt: hydrochloride) turned out to be 162 to 164 °C
